# Tested on: SMN2-luciferase reporter
# assay notes: SMN2-luciferase reporter assay (clonal HEK-293 SMN2-luc cells)
# Assay type: cell-based, human
# applied conditions: Homo sapiens, HEK293, reporter assay, Table 6; read-out: Ec50
pEC50: −log10 of the molar value.
endpoint: pEC50

- CC(C)(C)c1cc(NC(=O)c2ccc(F)c(Cl)c2)on1: 5.43
- O=C(Nc1ncc(C2(O)CCC2)s1)c1ccc(F)c(Cl)c1: 6.30
- CC(C)c1cc(C(=O)Nc2cccc(Cl)c2)no1: 6.46
- CC(C)c1cc(C(=O)Nc2ccc3c(c2)OCO3)no1: 5.59
- COc1cc2c(c(OC)c1OC)C(c1cc(Cl)ccc1F)CC(=O)N2 (stereo not drawn): 4.92
- CC(C)Cc1cc(C(=O)Nc2ccc(F)c(Cl)c2)no1: 5.82
- CC(C)(C)c1cc(NC(=O)c2ccc(F)c(Cl)c2)no1: 5.52
- CC(C)c1cc(C(=O)Nc2nc3ccccc3[nH]2)no1: 6.52
- CC(C)c1nc(C(=O)Nc2ccc(F)c(Cl)c2)co1: 5.77
- CC1CC(C(=O)Nc2ccc(F)cc2)=NO1 (stereo not drawn): 5.00
- COc1cc2c(c(OC)c1OC)C(c1cc(Cl)ccc1F)NC(=O)N2 (stereo not drawn): 5.36
- O=C(Nc1ccc(F)c(Cl)c1)c1cc(Cc2ccccc2)on1: 5.82
- CC(C)(C)c1cc(NC(=O)c2cnc3ccccc3c2)no1: 6.10
- O=C(Nc1ccc(Cl)cc1)C1=NOC(c2ccccc2)C1 (stereo not drawn): 5.00
- O=C(Nc1ccc2c(c1)OCO2)c1cc(C2CC2)on1: 5.77
- CC(C)c1cc(C(=O)Nc2ccc3ccccc3c2)no1: 5.96
- O=C(Nc1ncc(C2(O)CCC2)s1)c1nc2ccccc2[nH]1: 6.82
- O=C(Nc1ccc(F)c(Cl)c1)C1=NOC(C2CC2)C1 (stereo not drawn): 5.70
- CC(C)c1cc(C(=O)Nc2cc(Cl)ccc2Cl)no1: 6.05
- Cc1cnc(NC(=O)c2ccc(F)c(Cl)c2)s1: 6.10
- O=C(Nc1nc(C2CCC2)cs1)c1ccc(F)c(Cl)c1: 6.30

====

In this section, each of the compounds is paired with its reported solubility.
# assay notes: Solubility in PBS / aqueous solution
# Type: physicochemical
# applied conditions: aqueous solution; Table 8, grades; read-out: Solubility in aqueous solution
endpoint: solubility

• COc1cc2c(c(OC)c1OC)C(c1cc(Cl)ccc1F)CC(=O)N2 (stereo not drawn) = < 500 µM
• COc1cc2c(c(OC)c1OC)C(c1cc(Br)ccc1F)CC(=O)N2 (stereo not drawn) = < 500 µM
• CC(C)c1cc(C(=O)Nc2nc3ccccc3[nH]2)no1 = < 500 µM
• COc1cc2c(c(OC)c1OC)C(c1cc(Cl)ccc1F)NC(=O)N2 (stereo not drawn) = 500 to 2000 µM
• O=C(Nc1ncc(C2(O)CCC2)s1)c1nc2ccccc2[nH]1 = > 2000 µM
• CC(C)c1cc(C(=O)Nc2ccc(F)c(Cl)c2)no1 = > 2000 µM

====

# assay notes: Liver microsome stability
# applied conditions: Table 8
In this section, each of the compounds is paired with its reported Stabilityin liver microsomes.
endpoint: Stabilityin liver microsomes (min)

- O=C(Nc1ncc(C2(O)CCC2)s1)c1ccc(F)c(Cl)c1: 39
- O=C(Nc1ncc(C2(O)CCC2)s1)c1nc2ccccc2[nH]1: 59
- CC(C)c1cc(C(=O)Nc2ccc(F)c(Cl)c2)no1: 15
- COc1cc2c(c(OC)c1OC)C(c1cc(Cl)ccc1F)CC(=O)N2 (stereo not drawn): 45
- CC(C)c1cc(C(=O)Nc2nc3ccccc3[nH]2)no1: 3

====

In this section, each of the compounds is paired with its reported solubility.
# assay notes: Solubility in PBS / aqueous solution
# Type: physicochemical
# applied conditions: PBS, aqueous buffer; read-out: Maximal solubility in PBS
endpoint: solubility (µM)

• COc1cc2c(c(OC)c1OC)C(c1cc(Cl)ccc1F)CC(=O)N2 (centres unmarked) [LDN-212351] = 500
• COc1cc2c(c(OC)c1OC)C(c1cc(Cl)ccc1F)NC(=O)N2 (centres unmarked) [LDN-212391] = 1000
• CC(C)c1cc(C(=O)Nc2nc3ccccc3[nH]2)no1 [LDN-212016] = 500
• COc1cc2c(c(OC)c1OC)C(c1cc(Br)ccc1F)CC(=O)N2 (centres unmarked) [LDN-76070] = 500

====

# Tested on: SMN-luciferase transcripts
# assay notes: qRT-PCR of SMN-luciferase transcripts in SMN2-luc cells
# Format: cell-based, human
# applied conditions: 24 hours, relative to DMSO, normalized to GAPDH, aclarubicin at 300 nM, words
endpoint: total SMN-luciferase transcripts

* O=C(CCCCCCC(=O)Nc1ccccc1)NO [SAHA, suberoylanilide hydroxamic acid] | increased
* CCCC(=O)[O-].[Na+] [sodium butyrate, reference compound] | increased
* CC(/C=C/C(=O)NO)=C\[C@@H](C)C(=O)c1ccc(N(C)C)cc1 [TSA] | increased

====

# assay notes: Liver microsome stability
# applied conditions: mouse, liver microsomes, T1/2 in liver microsomes, Table 7
endpoint: half-life (min)

• CC(C)c1cc(C(=O)Nc2ccc(F)c(Cl)c2)no1 [LDN-75654] = 15
• COc1cc2c(c(OC)c1OC)C(c1cc(Cl)ccc1F)NC(=O)N2 (stereo not drawn) [LDN-212391] = 13
• COc1cc2c(c(OC)c1OC)C(c1cc(Cl)ccc1F)CC(=O)N2 (stereo not drawn) [LDN-212351] = 45

====

# Tested on: SMN2-luciferase reporter
# assay notes: SMN2-luciferase reporter assay (clonal HEK-293 SMN2-luc cells)
# Type: cell-based, human
# applied conditions: Homo sapiens, HEK293, reporter assay, Table 6; read-out: Ec50
pEC50: −log10 of the molar value.
In this section, each of the molecules is paired with its reported pEC50.
endpoint: pEC50

* Cc1ccc(C(=O)Nc2cc(C(C)(C)C)on2)cc1C | 5.96
* CC(C)(C)c1nnc(NC(=O)c2ccc(F)c(Cl)c2)s1 | 5.23
* COc1ccc(NC(=O)c2cc(C(C)C)on2)c(OC)c1 | 6.00
* COc1cc2c(c(OC)c1OC)C(c1cc(Cl)ccc1F)C(C)C(=O)N2 (stereo not shown) | 5.22
* CN(C(=O)c1cc(C2CC2)on1)c1ccccc1 | 4.52
* COc1cc2c(c(OC)c1OC)C(c1cc(Br)ccc1F)CC(=O)N2 (stereo not shown) | 5.18
* CC(C)c1cc(NC(=O)c2ccc(F)c(Cl)c2)on1 | 5.60
* Cc1csc(NC(=O)c2ccc(F)c(Cl)c2)n1 | 5.68
* CC(C)c1cc(C(=O)Nc2ccccc2C(F)(F)F)no1 | 4.80
* COc1cc2c(c(OC)c1OC)C(c1cccc3ccccc13)CC(=O)N2 (stereo not shown) | 4.37

====

# Tested on: SMN2-luciferase reporter
# assay notes: SMN2-luciferase reporter assay (clonal HEK-293 SMN2-luc cells)
# Format: cell-based, human
# applied conditions: cell-based reporter response to known SMN2 modulating compounds
In this section, each of the compounds is paired with its reported Max. fold increase.
endpoint: Max. fold increase (fold)

• CC(C(=O)O)c1ccc(N2Cc3ccccc3C2=O)cc1 (stereo not drawn) [Indoprofen, indoprofen, reference compound] = 3
• CCCC(=O)[O-].[Na+] [sodium butyrate, reference compound] = 10
• CC(/C=C/C(=O)NO)=C\[C@@H](C)C(=O)c1ccc(N(C)C)cc1 [Trichostatin A, trichostatin A, reference compound] = 15

====

# System: SMN2-luciferase reporter
# assay notes: SMN2-luciferase reporter assay (clonal HEK-293 SMN2-luc cells)
# Format: cell-based, human
# applied conditions: Homo sapiens, HEK293, reporter assay, Table 6; read-out: Ec50
pEC50: −log10 of the molar value.
If the reported pEC50 equals or exceeds 6, assign TRUE. If not, assign FALSE.

* CC(C)(O)c1cnc(NC(=O)c2ccc(F)c(Cl)c2)s1 | TRUE
* O=C(Nc1ccc(F)c(Cl)c1)c1cc(C2CCCC2)on1 | FALSE
* CC(C)(C)c1coc(NC(=O)c2ccc(F)c(Cl)c2)n1 | TRUE
* CC(C)(C)c1cc(NC(=O)c2ccc3ccccc3c2)no1 | TRUE
* COc1cc2c(c(OC)c1OC)C(c1c(F)cccc1Cl)CC(=O)N2 (centres unmarked) | FALSE

====

In this section, each of the compounds is paired with its reported Max. fold increase.
# System: SMN2-luciferase reporter
# assay notes: SMN2-luciferase reporter assay (clonal HEK-293 SMN2-luc cells)
# Format: cell-based, human
# applied conditions: cell-based reporter response to known SMN2 modulating compounds
endpoint: Max. fold increase (fold)

• CCCC(CCC)C(=O)O = 2.5
• CC[C@@]1(O)C[C@H](O[C@H]2C[C@H](N(C)C)[C@H](O[C@H]3C[C@H](O)[C@H](O[C@H]4CCC(=O)[C@H](C)O4)[C@H](C)O3)[C@H](C)O2)c2c(cc3c(c2O)C(=O)c2c(O)cccc2C3=O)[C@H]1C(=O)OC [Aclarubicin, aclarubicin, reference compound] = 10
